Test: soluble fraction after stress (log2 fold change); higher = more stays soluble; pooled small domains, quantitative proteomics;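 note: 20 min heating vs room temperature control held 20 min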
Conditions: stress: 75 degC
Rule: soluble fraction (log2) under -0.1 gives -1, otherwise 1.

Answered examples (5):
Construct Sequence	Category Label
HMEVVELTDDEKMILATLHDGPVEIGHIKQVVGLSGKKWDAATKSLRQKGLINVVLENEQKLMVK	1
HMKSFDERQAALNELAKVIEGTGRKAEQDAEFRREQNQLMIDKIDEQLKGDLTDSQREELKKERAALARK	1
HMDVNHVIIDHKGNSIQAIIDSIDLDNVYYQSKIKKESEVIDIDKVYFIFNDFDRVYHYDWSYYENL	-1
HMLPLLAFDEKLNRLGYGGGFYDRTLASLAHKGNTITAIGIAYESQKMDKVPTGYFDRPLDGVLTPSGLIM	1
HMKSAYADVAIAKVQDYVNVRAENNEDSEVLGKLYNNSAATVLETTDDGWYKISSGSVTGYVKSEYVVVG	-1

Q: Could you verify whether the entry HMVEGTVKWFNDEKGFGFIEQEGGKDVFVHFSAINGSGRRTLHEGQRVTMEVTQGQKGPQAENVNP shows soluble fraction (log2) of no less than -0.1?
Ans: 1

Q: Could you verify whether the entry HMPDYYAILEVERTADAKTIKAAYRKLALAYHPDRNPGDQAAEERFKQINEAYAVLSDPEKRARYDRYGSV shows soluble fraction (log2) of no less than -0.1?
Ans: -1

Q: Could you verify whether the entry HMEPREEFTFADLRANGLNGTAAAAGRRAALGAALGIGYGNAKQFLRRLNHYGVTRSEWEAALADLDE shows soluble fraction (log2) of no less than -0.1?
Ans: -1

Q: Could you verify whether the entry HMALLKRQDEILMYLYTQNKWITGNELAQLFHVSLRTIRNDISFINTEKSNSVLSNRNKGYHIAKDFVYNE shows soluble fraction (log2) of no less than -0.1?
Ans: -1

Q: Could you verify whether the entry HMSSKIKYSEFITMLDKGEVESVVLKSDTLTITLKHGTGVAAQTKTTTLMEDLSELTKRLEKAGIKDFDK shows soluble fraction (log2) of no less than -0.1?
Ans: -1

Q: Could you verify whether the entry HMDEFAGSAKPLADGAAPAGYDVKGNKDSMKYHEPGGRWYDATVAEVWFKTAADAEAAGFVKAGA shows soluble fraction (log2) of no less than -0.1?
Ans: 1

Q: Could you verify whether the entry HMGYQLSLEAQSQLKALGLTSEYITRILDEADNRQPIPGTSRTVYSLNGYQVEFSHSDQQVIRIARG shows soluble fraction (log2) of no less than -0.1?
Ans: -1

Q: Could you verify whether the entry HMYDRIKLLKLREKRGLTQYELAEKAGISVVTLNKIETSDMAKPFASTLKKIALALGVGIEELS shows soluble fraction (log2) of no less than -0.1?
Ans: -1

Q: Could you verify whether the entry HMADEEEIMVPQVVGKTYDEAKSELENAGFKVEKNEKTSDKASGTVISQSINGGAKKGTSVTLTVSKGN shows soluble fraction (log2) of no less than -0.1?
Ans: 1

Q: Could you verify whether the entry HMPDFLAELAARMERDAVTEAQIRQVVAQKGHYPEEVSPAQYHPDFFRQWLFPHWEKIVDVIRSSPEYTP shows soluble fraction (log2) of no less than -0.1?
Ans: -1

Q: Could you verify whether the entry HMSGQLTEEQVKQIVTTAVKNSSGSTLTAAEVSRIVSTAVANNLTADQVKTVVNNALAGITTDISTLKA shows soluble fraction (log2) of no less than -0.1?
Ans: 1

Q: Could you verify whether the entry HMSNLVEVPAVIGRMKEDAITMLISAGLEPAVTYDEYPLVKENLVADQSVAPGQKVEKGSFVTITVSRS shows soluble fraction (log2) of no less than -0.1?
Ans: 1

###

Test: soluble fraction after stress (log2 fold change); higher = more stays soluble; pooled small domains, quantitative proteomics
Conditions: stress: 75 degC
Property: soluble fraction (log2)
// no unit string in output, number only

Please review the following examples before continuing.
Construct Sequence	Quantitative Readout
HMIILYTDEQQRIIDRLNEFIGEQPSQNEAAKLLGISAPILTNLRKGTYTGTVDKFMNKLAAYFNIKADLG	-1.3
HMELEAFPNPTDMFLSFTTKEKTPLAIYDINGKQVLYVEQITSSSKINVSKLSEGVYFAKTNQGTVKWVK	-2.35
HMNSLQLGSRGPTVSALQAKLNTMLVPSPRLVADGSFGPKTAQAVKAFQQMKRLVADGVVGPKTAAALGLS	-0.156
HMLGDAVLRQVLETIPEDPAVDYLELRRNTGMTEADLDRVLADLENLGVINKKRTVEQVLYWRT	-0.651

Q: # input sequence: HMTKIDYSINQIYSLRNIENITIVLKDKRSFTGKILKIYWQNGSKIILFTTETRNYKFKEYEISEIYKS ; wanted: its soluble fraction (log2)
Ans: -1.02

Q: # input sequence: HMEVLTEPKVQSIDTHGEKSTFVIESPNPLQPDEIAKLVGADGISVRVDRTWLKSHRDSTWTYSILTVS ; wanted: its soluble fraction (log2)
Ans: -0.118

Q: # input sequence: HMELDIGKKAIVIEKIDPEAGTGRVRIEGVDWGAKTADSSVIEKGETVVVKAKGAAFVTVAK ; wanted: its soluble fraction (log2)
Ans: 0.0983

Q: # input sequence: HMFIEHSKYKLSFKYNQLGKISNVINSNNGIIMDKHFDQNITLLAKLTENTFQEIIKHFPTIIIKRL ; wanted: its soluble fraction (log2)
Ans: -3.74

Q: # input sequence: HMHLIPRESTYEIDGRRFVVDSVNLDFGKVSLQDITFRNATGFPIFRSESIEFMRRLVEISEAQRIAEL ; wanted: its soluble fraction (log2)
Ans: -0.0447

Q: # input sequence: HMFLTSDEGKIMQLLEDKQRITRKDAQELLGVSQSTAGRILKTLVDNGQITQRGGGRTTRYELIK ; wanted: its soluble fraction (log2)
Ans: 0.104

Q: # input sequence: HMDQPLIEPLSERELEVLSLIAAGYSNAEIAERLVIAVGTVKRHINNLYGKLGAGSRTQALAIAREIGLM ; wanted: its soluble fraction (log2)
Ans: -0.107

Q: # input sequence: HMSVFTPLTRSELETFLAPYELGRLLDFQGIAAGSENTNYFISLEKGEYVLTLVERGPVAEMPFFIELLD ; wanted: its soluble fraction (log2)
Ans: -1.33

Q: # input sequence: HMVISAKRMQDRRDSILDAAREAFARAGFEGTSIADIARRAGVSDGLVYRYFASKRDLLNAVLTA ; wanted: its soluble fraction (log2)
Ans: -1.61

###

Assay: soluble fraction after stress (log2 fold change); higher = more stays soluble; pooled small domains, quantitative proteomics
Settings: stress: 75 degC
Rule: soluble fraction (log2) under -0.9 gives 0 (no), otherwise 1 (yes).

Answered examples (6):
Construct Sequence	Category Label
HMAETLLWADAAQEGLNRIVAAQPILVRISAAKRLRDASEQAAKAAGVSTVEIGHVQHASESLQFGDA	1 (yes)
HMQTQVEVLVKYVLEDGTVYKEDKVSADIGAILDSGDLPMLSNDMKFIDDFLFYEVKESDNVIERKVAKLV	1 (yes)
HMVKIVWSKEGPYVGTRVRRYFSQGPVDGTVVMYAKPQKGDDVALWRISHDDGDEEDLEEQELRLAID	0 (no)
HMKYNYEAQQSDELSLVKGSRIHVLEKSSDGWWKGEIDNVVGWFPS	1 (yes)
HMINKIANLSAELRMEGLPVSIRSTQAAVKIYMDLGGDDRNLLKTALMSIYVKDRYDIPKFNKVFEKLFA	0 (no)
HMERLSNQVYAILKEMIADYRFNPGARINVEQIAKEVGASRTPVWEAVHRLVQEGLLENIPNRGVFML	0 (no)

Q: Could you verify whether the entry HMADTSLDHLGVLVRHASDVDAWAEFFENRGVTLASQPRTHRDGARSFYVDDPDGNRVQVIYHPPI shows soluble fraction (log2) of no less than -0.9?
Ans: 1 (yes)

###

Experiment: soluble fraction after stress (log2 fold change); higher = more stays soluble; pooled small domains, quantitative proteomics
Details: stress: 75 degC
Note: every record was labeled by where its soluble fraction (log2) sits among low: < -2; intermediate: ≥ -2 and < -0.3; high: ≥ -0.3

Answered examples (10):
Construct Sequence	Category Label
HMSKQIEVPDVTDMTVSDAIDVLQDKGFVVSDEQKEVASSEIEEGRVVRTSPAVGSKRKDGTVVTLYVSI	high
HMGLPAWVPQNYIDRVTAIYDYSADKDDELTFNEGSTIFVLKKNDDGWWEGVMDGVTGLFPGNYVEAT	intermediate
HMLAQDVIVKQDGGTILSKVLEIGTQEIAYKKWNSQDGPVYKIAKDQVLSVNYQNGEVDRFA	high
HMSWEDSLLKQAREIIDMYPQKRSAVGPLLHLAQSKDGYISDDSISVISKLVGITEVQLKSVSTFYSMYK	intermediate
HMVENMDEFIGRVRRLVSDRLDLLKEASDDEIRETISQVVLELSREQFLTLNEKKTVLEGVFNSMR	intermediate
HMLMRKAEVGVESLNLRHGPGTQYKVLEILPGGKSLHYLAEPRRGWVRVTTEEGTTGWTFLKFLKPE	low
HMGFEALRSRHRITAREMEVLQHMLAGRSNAEIGHTLGLSERTVKTHITSIFNKLGVDSRAQLGYMLK	intermediate
HMQISDTTELSTLITKVLSEQSDALVDFKNPKKQKQVIGYLTGQVLRASQGKANPGLVRSLLEEQLSALDS	high
HMNTEEITYSRFQQMLEAGEISQVSIESNRILILPSEETGIEKVLYTGIINDPGLVERLNSAGVEFRAPIE	intermediate
HMVMRHTVEHDAELLAVLRLMYPASSSTKLRKMLTQGRVLVNDDVVHRAKHGVASGDTVDVIVRQRAE	low

Q: Input HMSSYMQMQLERLESLLQKNDLTDSDKYDIRQLVEDLDKVPESVSPNLVGAYMTIKNRYASVLKTVL ; output its category
Ans: high

Q: Input HMPARTANEEAIRKYLLNHDSITRKETQALLKTGQSAAGRILKEMVENGWLARIGNGRSTGYELR ; output its category
Ans: high

Q: Input HMFNPEQDPKQLTGRERAVADLIGLGANNAEIAIRLSMSERTVKAHLTSIFQQLNVRDRVQLALVMNQL ; output its category
Ans: intermediate

Q: Input HMNMVSGHLQIKKGYYYVVLSYYDNRNKRHVKYVSTGLPEKGNKRKAEAALARVRSEFEPPQE ; output its category
Ans: low

Q: Input HMRKIFPFNPNFITDQRGYFLGMSTSEIDRLHHFRAANKWIQSAQEFQVVTKVSNAWLSEFSPYFNFP ; output its category
Ans: low

Q: Input HMRKTYHVDAYQDDKWWVLQVQEMPNAISQVKSLDQADEWIREAINIVSNEPEDSFDVVIIPV ; output its category
Ans: intermediate

Q: Input HMGGLAEGTKITLQNTVNVRASMGEDAEKIGTAYAGEKVTVIMSYAEGWTKVTWNDKTGYIKTSLL ; output its category
Ans: intermediate
